test-method-notes: Pharmacokinetics after a single 150 mg oral dose, fasting or postprandial
Format: in vivo, healthy Chinese subjects
settings: human, plasma, oral, 150 mg
measurement-type: Tmax (h)

1. [H]/N=C(/N)c1ccc(NCc2nc3cc(C(=O)N(CCC(=O)O)c4ccccn4)ccc3n2C)cc1 :: 2.5
